Molecular target: ASK1 (Homo sapiens)
Construct: a 2.2 kb DNA fragment containing an ASK1 gene was recovered from the gel; FLAG (N); made in house; host or cells: Sf-21 insect cells (recombinant baculovirus, pFASTBAC1)
Sequence (Q99683 649-1374 limits assumed): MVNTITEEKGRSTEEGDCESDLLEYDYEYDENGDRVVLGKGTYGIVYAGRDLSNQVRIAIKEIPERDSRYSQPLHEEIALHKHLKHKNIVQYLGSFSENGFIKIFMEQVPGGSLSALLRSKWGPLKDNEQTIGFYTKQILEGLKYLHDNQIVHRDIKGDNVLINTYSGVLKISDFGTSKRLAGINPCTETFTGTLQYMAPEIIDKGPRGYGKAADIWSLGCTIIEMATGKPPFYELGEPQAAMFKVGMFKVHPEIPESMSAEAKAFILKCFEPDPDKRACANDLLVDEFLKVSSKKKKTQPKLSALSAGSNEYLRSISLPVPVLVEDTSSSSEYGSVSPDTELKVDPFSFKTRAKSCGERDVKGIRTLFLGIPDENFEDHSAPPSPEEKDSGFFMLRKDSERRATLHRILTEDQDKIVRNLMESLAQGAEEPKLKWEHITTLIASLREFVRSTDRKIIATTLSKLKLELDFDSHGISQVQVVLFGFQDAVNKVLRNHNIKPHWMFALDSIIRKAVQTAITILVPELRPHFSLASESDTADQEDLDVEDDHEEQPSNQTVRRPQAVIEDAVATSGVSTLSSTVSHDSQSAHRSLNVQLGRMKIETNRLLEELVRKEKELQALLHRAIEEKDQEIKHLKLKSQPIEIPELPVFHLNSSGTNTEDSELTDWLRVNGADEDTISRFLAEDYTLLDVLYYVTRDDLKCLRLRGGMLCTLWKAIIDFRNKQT
Assay: Scintillation assay for measuring the inhibitory effect against ASK1 (myelin basic protein substrate, [γ-32P]ATP)
Type: biochemical
Settings: Table 1, assay of Example A and B, read-out: Enzyme Activity IC50

SMILES_REPR: CC(C)(C)c1ccc(C(=O)Nc2nc3ccc(-c4ccncc4)nc3s2)cc1
IC50: 0.1 to 1 µM

SMILES_REPR: CC(C)(O)c1ccc(C(=O)Nc2nc3ccc(-n4ccnc4)nc3s2)cc1
IC50: 0.1 to 1 µM

SMILES_REPR: CC(C)(CO)c1ccc(C(=O)Nc2nc3ccc(-c4ccncc4)nc3s2)cc1
IC50: 0.1 to 1 µM

SMILES_REPR: CC(C)(O)c1ccc(C(=O)Nc2nc3ccc(-c4ccc(O)nc4)nc3s2)cc1
IC50: < 0.1 µM

SMILES_REPR: COC(=O)c1ccc(C(=O)Nc2nc3ccc(-c4c[nH]nc4C)nc3s2)cc1
IC50: > 1 µM

SMILES_REPR: CC(C)(O)c1ccc(C(=O)Nc2nc3ccc(N4CC[C@@H](O)C4)nc3s2)cc1
IC50: > 1 µM

SMILES_REPR: CC(C)(O)c1ccc(C(=O)Nc2nc3ccc(-c4cn[nH]c4)nc3s2)cc1
IC50: < 0.1 µM

SMILES_REPR: O=C(Nc1nc2ccc(-c3cn[nH]c3)nc2s1)c1ccc(C2CC2)cc1
IC50: > 1 µM

SMILES_REPR: CC(C)(O)c1ccc(C(=O)Nc2nc3ccc(N4CCCCC4)nc3s2)cc1
IC50: > 1 µM

SMILES_REPR: CCc1nccn1-c1ccc2nc(NC(=O)c3ccc(C(C)(C)O)cc3)sc2n1
IC50: > 1 µM

SMILES_REPR: CC(C)(O)c1ccc(C(=O)Nc2nc3ccc(N4CCCC4)nc3s2)cc1
IC50: > 1 µM

SMILES_REPR: Cc1n[nH]c(C)c1-c1ccc2nc(NC(=O)c3ccc(C(C)(C)O)cc3)sc2n1
IC50: 0.1 to 1 µM

SMILES_REPR: Cc1cnccc1-c1ccc2nc(NC(=O)c3ccc(C(C)(C)CO)cc3)sc2n1
IC50: 0.1 to 1 µM

SMILES_REPR: Cn1cc(-c2ccc3nc(NC(=O)c4ccc(C(C)(C)O)cc4)sc3n2)cn1
IC50: 0.1 to 1 µM

SMILES_REPR: CC(C)(O)c1ccc(C(=O)Nc2nc3ccc(-c4ccncc4)nc3s2)cc1
IC50: 0.1 to 1 µM

SMILES_REPR: Cc1n[nH]cc1-c1ccc2nc(NC(=O)c3ccc(C(C)(C)CO)cc3)sc2n1
IC50: < 0.1 µM

SMILES_REPR: Cc1n[nH]cc1-c1ccc2nc(NC(=O)c3ccc(C(C)(C)O)cc3)sc2n1
IC50: < 0.1 µM
